Source: patent US20120277211A1

Number of individuals with change in total PANSS ≧−20% (non-responders) values, listed per item
# System: African American schizophrenia patients
# experimentSummary: CATIE: change in total PANSS (LOCF) by SULT4A1-1 haplotype status, African Americans
# Assay type: in vivo, human
# assayConditions: SULT4A1-1 negative, LOCF
Form: value (number only, do not type unit).

Previously resolved entries follow.
Recorded result, Cc1cc2c(s1)Nc1ccccc1N=C2N1CCN(C)CC1 , Number of individuals with change in total PANSS ≧−20% (non-responders): 30

Recorded result, OCCN1CCN(CCCN2c3ccccc3Sc3ccc(Cl)cc32)CC1 , Number of individuals with change in total PANSS ≧−20% (non-responders): 27

Recorded result, O=C1Cc2cc(CCN3CCN(c4nsc5ccccc45)CC3)c(Cl)cc2N1 , Number of individuals with change in total PANSS ≧−20% (non-responders): 22

Recorded result, Cc1nc2n(c(=O)c1CCN1CCC(c3noc4cc(F)ccc34)CC1)CCCC2 , Number of individuals with change in total PANSS ≧−20% (non-responders): 34

Proceeding to the next compound to report its Number of individuals with change in total PANSS ≧−20% (non-responders).
Recorded result, OCCOCCN1CCN(C2=Nc3ccccc3Sc3ccccc32)CC1 , Number of individuals with change in total PANSS ≧−20% (non-responders): 25
